tested on: CEM-SS cells; experiment: XTT assay, cytotoxicity (IC50), CEM-SS cells; format: cell-based; details: Homo sapiens, CEM-SS, cytotoxicity, CEM-SS cells; read-out: XTT Assay IC50
readout.label: pIC50
Give only the number. pIC50 is defined as minus log10 of concentration in molar units.

compound: [O-][S+]1C[C@@H](O)[C@@H](O)CS1 (relative stereo) [NSC 667090]
readout.label: pIC50
val: 3.99

compound: CC(=O)OCC1(COC(C)=O)CSS(=O)(=O)C1 [NSC 661126]
readout.label: pIC50
val: 4.52

compound: O=C1NC(=O)C2(CSSC2)N1 [NSC 208750]
readout.label: pIC50
val: 4.61

INPUT: Tell me reported pIC50 for O=S1(=O)C[C@@H](O)[C@H](O)CS1 (relative stereo) [NSC 624152] , tested with CEM-SS cells.
OUTPUT: 3.87

INPUT: Continue with O=S1(=O)CC(CO)(CO)CS1 [NSC 661127]
OUTPUT: 3.42

INPUT: Continue with [O-][S+]1CCCCS1 (centres unmarked) [NSC 56224]
OUTPUT: 4.58

###

molecular target: HIV-1 p66-p51 RT (Human immunodeficiency virus type 1 group M subtype B, UniProt P04585)
readout.label: IC50

INPUT: Using the record for O=S1(=O)C[C@H](O)[C@H](O)CS1 (relative stereo) [NSC 624151, cis-1,1-dioxo[1,2]dithiane-4,5-diol] , report its IC50.
OUTPUT: > 100 µM

###

test system: CEM-SS cells; test: XTT assay, cytotoxicity (IC50), CEM-SS cells; type: cell-based; details: Homo sapiens, CEM-SS, cytotoxicity, CEM-SS cells; read-out: XTT Assay IC50
Mark T only when IC50 stays strictly below 60 µM. Values equal to the cut-off are F.

For orientation, consider the following solved cases.
compound: O=C(O)CCCCC1CCSS1 (centres unmarked) [NSC 628502]
cat: F

compound: CC(=O)O[C@H]1CSSC[C@H]1OC(C)=O [NSC 667093]
cat: F

INPUT: In plain terms, does CC(=O)O[C@@H]1CSSC[C@H]1OC(C)=O (relative stereo) [NSC 667092] come in under 60 µM for IC50?
OUTPUT: F

INPUT: Continue with [O-][S+]1CC(CO)(CO)CS1 (centres unmarked) [NSC 661753]
OUTPUT: F

INPUT: Continue with CC(=O)OCC1(COC(C)=O)CS[S+]([O-])C1 (centres unmarked) [NSC 661754]
OUTPUT: T

###

compounds and their reported pIC50
tested on: CEM-SS cells; experiment: XTT assay, cytotoxicity (IC50), CEM-SS cells; format: cell-based; settings: Homo sapiens, CEM-SS, cytotoxicity, CEM-SS cells; read-out: XTT Assay IC50
Give only the number. pIC50 is defined as minus log10 of concentration in molar units.

compound: O[C@@H]1CSSC[C@@H]1O
pIC50: 4.70
//
compound: O=S1(=O)C[C@H](O)[C@H](O)CS1 (relative stereo) [NSC 624151, cis-1,1-dioxo[1,2]dithiane-4,5-diol]
pIC50: 3.74
//
compound: O=S1(=O)C[C@H](O)[C@H](O)CS1 (single isomer, unassigned) [NSC 693194]
pIC50: 3.87
//
compound: CC(=O)O[C@H]1CSS(=O)(=O)C[C@H]1OC(C)=O (relative stereo)
pIC50: 5.04
//
compound: NC1(C(=O)O)CSSC1
pIC50: 4.97

With those in mind, consider the next compound.
INPUT: Tell me reported pIC50 for [O-][S+]1C[C@@H](O)[C@H](O)CS1 (relative stereo) , tested with CEM-SS cells.
OUTPUT: 4.23

###

system: CEM-SS cells; test: XTT assay, cytotoxicity (IC50), CEM-SS cells; assay type: cell-based; settings: Homo sapiens, CEM-SS, cytotoxicity, CEM-SS cells; read-out: XTT Assay IC50
molecules and their reported pIC50
Give only the number. pIC50 is defined as minus log10 of concentration in molar units.

Below, 2 molecules whose answers are already recorded.
molecule: CC(=O)O[C@@H]1CS[S+]([O-])C[C@H]1OC(C)=O (relative stereo)
pIC50: 4.66

molecule: O=S1(=O)CCCCS1
pIC50: 5.24

With those in mind, consider the next molecule.
INPUT: Using the record for NC(=O)NN=C1CSSC1 , report its pIC50.
OUTPUT: 3.90

###

test system: CEM-SS cells; test: XTT assay, cytotoxicity (IC50), CEM-SS cells; type: cell-based; conditions: Homo sapiens, CEM-SS, cytotoxicity, CEM-SS cells; read-out: XTT Assay IC50
readout.label: IC50

INPUT: Using the record for CC(=O)OCC1(COC(C)=O)CSSC1 [NSC 660167] , report its IC50.
OUTPUT: > 200 µM

INPUT: Continue with O[C@@H]1CSSC[C@H]1O (relative stereo) [NSC 663605]
OUTPUT: > 200 µM

INPUT: Continue with OCC1(CO)CSSC1 [NSC 72270]
OUTPUT: > 200 µM
